The origin of these recorded values is patent US20030068675.

Molecular target: T1, ZFP SBS#1026 (synthetic)
T1 chain: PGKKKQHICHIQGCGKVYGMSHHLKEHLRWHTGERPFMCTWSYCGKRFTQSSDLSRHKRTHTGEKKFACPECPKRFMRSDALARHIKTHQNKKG
Test: EMSA
Settings: tags: MBP fusion
RESULT TYPE: Kd (nM)
Field: numeric (nM). Do not append units.

Asked: Which value of Kd has been reported for GTGGCTTGT (dsDNA) DNA 1: GTGGCTTGT DNA 2: ACAAGCCAC in the records?
Given back: 0.076
